Molecular target: human FXR (Homo sapiens, UniProt Q96RI1)
Sequence (Q96RI1 262-486 limits assumed): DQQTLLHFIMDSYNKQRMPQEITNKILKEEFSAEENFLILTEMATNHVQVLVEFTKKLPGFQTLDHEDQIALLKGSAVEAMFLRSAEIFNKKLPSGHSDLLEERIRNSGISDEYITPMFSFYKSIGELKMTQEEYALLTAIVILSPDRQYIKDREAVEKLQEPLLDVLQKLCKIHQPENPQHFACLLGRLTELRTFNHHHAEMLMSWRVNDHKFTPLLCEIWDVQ
Assay: transient human FXR/Gal4-luciferase reporter assay
Conditions: Gal4-hFXR fusion construct, luciferase reporter in HEK293 cells; overnight incubation; response as percentage of 8 μM GW-4064 control
Description: The exemplified compounds of the present invention were tested in the transient human FXR/Gal4-luciferase reporter assay, and assay results were reported in Table 1 and Examples 1 to 3 together with other analytical data. […] This protocol can be scaled up, and the transiently transfected cells can be cryopreserved in an assay-ready format. […] The transfected cells are harvested, counted, and diluted such that 10-25,000 cells in 25 μL are plated into each well of the 384-well compound assay plate. […]
metric_name: EC50

molecule CC(C)(C)c1noc(C23CCC(CN(C(=O)C45CC(F)(C4)C5)c4ccc(F)c(C(C)(C)O)c4)(CC2)CC3)n1 , EC50 observed: 4 µM

// EC50 value for CC(F)(F)c1nc(C23CCC(CN(C(=O)C4CCC(F)(F)CC4)c4cccc(C#N)c4)(CC2)CC3)no1 : 0.106 µM

Entry CC(C)(C)c1nc(C23CCC(CN(C(=O)C45CC(F)(C4)C5)c4cccc(O)c4)(CC2)CC3)no1 ; EC50 = 0.065 µM

Sample Cc1noc(C23CCC(CN(C(=O)C4CCCCC4)c4cccc(C(=O)Nc5nccs5)c4)(CC2)CC3)n1 ; EC50 observed: 3.01 µM
